- assayNotes: qHTS assay to identify small molecule agonists of the progesterone receptor (PR) signaling pathway - cell viability counter screen (AID 1346799); note: nearly all actives have a fitted effect of over 45% in size
- conditionsUsed: PR-UAS-bla HEK293T viability, CellTiter-Glo luminescence, 16 h; series mostly up to 92.4 µM
Records with an inconclusive call do not appear. The source made the active and inactive calls. Calls come from the whole dose curve.
Can you answer with just one of these options? active, inactive

Previously resolved entries follow.
| structureNotation | labelValue |
| --- | --- |
| CC(C)=CC(=O)C=C(C)C | inactive |
| C1COC1 | inactive |
| CC(CO)CO | inactive |
| CC(C)=CCC/C(C)=C/CC/C(C)=C/CCC(=O)OC/C=C(\C)CCC=C(C)C | inactive |
| COc1ccc(OC(=O)N(CC(=O)O)Cc2ccc(OCCc3nc(-c4ccccc4)oc3C)cc2)cc1 | inactive |
| C(=C\c1ccccc1)/c1ccccc1 | inactive |

Moving on to another compound below.
State the result this test recorded for `CC1=Nc2ccc3ccccc3c2C1(C)C` . active

---

- assayNotes: A CellTox Green Cytotoxicity Assay to monitor cytotoxicity in HEK293 cells - 8 hour (AID 1224884); note: nearly all actives have a fitted effect of over 35% in size
- conditionsUsed: CellTox Green fluorescence; series mostly up to 76.8 µM
Records with an inconclusive call do not appear. Activity calls are given as the source filed them. The call rests on the fitted dose curve; in most records, active means well fitted activation curve with a large enough effect in the repeat runs; inconclusive means weak or mixed curves; inactive means flat fitted curve, though single readings scatter.
measurementKind: outcome

Worked cases, answers included:
| compound | measurementKind | resultValue |
| --- | --- | --- |
| C=C(C)CCCC(C)CCO (configuration not stated) | outcome | inactive |
| O=C(O)c1ccc(OCCCOc2ccc(C(=O)O)cc2)cc1 | outcome | inactive |
| CC(O)c1ccccc1 (configuration not stated) | outcome | inactive |
| CN1C(=O)N(c2ccccc2Br)Cc2cnc(Nc3ccc4c(c3)OCC(CO)O4)nc21 (configuration not stated) | outcome | inactive |
| CC(C)c1nc(CN(C)C(=O)N[C@H](C(=O)N[C@@H](Cc2ccccc2)C[C@H](O)[C@H](Cc2ccccc2)NC(=O)OCc2cncs2)C(C)C)cs1 | outcome | inactive |

// field: outcome; key: `C1COC1` ; value = inactive

Form field outcome, entry `O=C1NCCN1CCO` : inactive

Consider `CCCCCC#CC(=O)OC` . Its measured outcome is inactive

Per the records, this compound ( `N#[N+]c1ccc2c(S(=O)(=O)[O-])cccc2c1O` ) has outcome equal to inactive

So, `CCCCCCCCCI` ? Its outcome was inactive

Summary for this compound, `COc1ccccc1Oc1c(NS(=O)(=O)c2ccc(C(C)(C)C)cc2)nc(-c2ncccn2)nc1OCCO` : outcome is inactive

For record CN1CCCN=C1COC(=O)C(O)(c1ccccc1)C1CCCCC1 (configuration not stated) the listed outcome is inactive

---

- assayNotes: qHTS assay to identify small molecule agonists of H2AX - cell viability counter screen (AID 1224847);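 note: wild-type CHO-K1 cells; top concentration of the series differs between compounds; nearly all actives have a fitted effect of over 30% in size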
- conditionsUsed: CHO-K1 viability, CellTiter-Glo luminescence, 3 h; series mostly up to 154 µM
Inconclusive results are not listed. Calls of active or inactive are those of the source. The call rests on the fitted dose curve.
Use one of these outcomes when replying: Y for active, N for inactive

| compound | labelValue |
| --- | --- |
| O=C(Nc1cccc2c(=O)cc(-c3nn[nH]n3)oc12)c1ccc(OCCCCc2ccccc2)cc1 | N |
| OC1(c2ccccc2)CCNCC1 | N |
| CCC(OCCCOC)OC(C)=O (stereo not given) | N |
| CCOC(=O)OC(C)OC(=O)[C@@H]1N2C(=O)[C@@H](NC(=O)[C@H](N)c3ccccc3)[C@H]2SC1(C)C (stereo not given in full) | N |
| CCC1(CO)COCOC1 | N |

How did this test come out for `CN1C(C(=O)Nc2ccccn2)=C(O)c2sccc2S1(=O)=O` ? N

Test call for this compound, please: `CCCC(=O)C(=O)O` N

Please share the test call associated with `O=C1NC(=O)c2cc([N+](=O)[O-])ccc21` . N
